# Study system: human mGluR1 (Homo sapiens (Human))
# Sequence (Q13255 19-1194): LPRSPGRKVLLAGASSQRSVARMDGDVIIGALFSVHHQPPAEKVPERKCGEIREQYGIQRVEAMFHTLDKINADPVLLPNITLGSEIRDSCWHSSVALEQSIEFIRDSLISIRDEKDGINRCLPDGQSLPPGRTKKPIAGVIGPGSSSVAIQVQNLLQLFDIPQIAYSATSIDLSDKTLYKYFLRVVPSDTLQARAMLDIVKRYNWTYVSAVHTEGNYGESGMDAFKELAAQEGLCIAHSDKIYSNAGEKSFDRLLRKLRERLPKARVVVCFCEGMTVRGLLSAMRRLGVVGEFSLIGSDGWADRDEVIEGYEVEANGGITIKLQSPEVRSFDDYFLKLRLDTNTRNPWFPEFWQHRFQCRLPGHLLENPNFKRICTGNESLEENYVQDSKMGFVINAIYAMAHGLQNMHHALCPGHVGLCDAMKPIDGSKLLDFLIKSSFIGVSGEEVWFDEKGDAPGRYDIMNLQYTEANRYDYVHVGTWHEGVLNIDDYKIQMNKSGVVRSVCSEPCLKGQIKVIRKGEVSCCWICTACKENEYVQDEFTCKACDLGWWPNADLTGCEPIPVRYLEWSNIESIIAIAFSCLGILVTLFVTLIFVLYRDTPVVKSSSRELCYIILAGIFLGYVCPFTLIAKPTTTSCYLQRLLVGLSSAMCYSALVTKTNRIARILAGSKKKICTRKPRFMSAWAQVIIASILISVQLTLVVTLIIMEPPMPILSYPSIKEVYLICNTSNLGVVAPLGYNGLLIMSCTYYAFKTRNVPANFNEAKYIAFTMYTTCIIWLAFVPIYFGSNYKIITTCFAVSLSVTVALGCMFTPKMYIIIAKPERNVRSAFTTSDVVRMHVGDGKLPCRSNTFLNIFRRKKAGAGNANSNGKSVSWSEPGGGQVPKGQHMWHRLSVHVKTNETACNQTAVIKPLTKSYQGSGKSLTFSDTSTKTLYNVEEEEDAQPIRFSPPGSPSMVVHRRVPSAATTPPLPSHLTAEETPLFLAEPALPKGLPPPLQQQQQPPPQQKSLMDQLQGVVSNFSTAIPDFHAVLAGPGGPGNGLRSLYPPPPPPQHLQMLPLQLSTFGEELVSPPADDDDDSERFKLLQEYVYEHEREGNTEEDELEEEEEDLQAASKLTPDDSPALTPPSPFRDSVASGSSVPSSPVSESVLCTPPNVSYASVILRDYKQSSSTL
# Method summary: mGluR1 antagonism, L-glutamate induced intracellular calcium increase (FLIPR) in CHO cells stably expressing human mGluR1
# Type: cell-based
# Study conditions: L-glutamate induced intracellular calcium, CHO cells expressing human mGluR1, FLIPR
Recorded measurements of IC50, one per entry
Assay endpoint: IC50

compound=O=C1CN=C(n2cnc(C3CCC3)c2)C=C2c3cccc(N4CCOCC4)c3CCN12 assay_endpoint=IC50 test_result="> 10 µM"
compound=COc1cccc(C2=NCC(=O)N3CCc4c(Cl)cccc4C3=C2)c1 assay_endpoint=IC50 test_result="0.585 µM"
compound=COCCOCc1cccc2c1CCN1C(=O)CN=C(c3cccc(OC)c3)C=C21 assay_endpoint=IC50 test_result="> 10 µM"
compound=COc1ccc(C)c(C2=NCC(=O)N3CCc4c(OC)cccc4C3=C2)c1 assay_endpoint=IC50 test_result="> 10 µM"
compound="O=C1CN=C(n2cnc(C3(O)COC3)c2)C=C2c3cccc(-c4ccc(F)nc4)c3CCN12 [Example 106c]" assay_endpoint=IC50 test_result="> 10 µM"
compound=COc1cc(C2=NCC(=O)N3CCc4c(I)cccc4C3=C2)ccn1 assay_endpoint=IC50 test_result="1.4 µM"
compound=O=C1CN=C(n2cnc(COC(F)(F)F)c2)C=C2c3cccc(C4CC4)c3CCN12 assay_endpoint=IC50 test_result="> 2 µM"
compound=Cn1ccc(C2=NCC(=O)N3CCc4c(cccc4C(C)(C)O)C3=C2)n1 assay_endpoint=IC50 test_result="> 10 µM"
compound="O=C1CN=C(n2cnc(-c3cnco3)c2)C=C2c3cccc(C4CC4)c3CCN12 [Example 123a]" assay_endpoint=IC50 test_result="> 2 µM"
compound=CC(C)n1cc(C2=NCC(=O)N3CCc4c(I)cccc4C3=C2)cn1 assay_endpoint=IC50 test_result="0.015 µM"

====

# Study system: human mGluR5a receptors (Homo sapiens (Human))
# Method summary: inhibition of glutamate-induced elevation of intracellular calcium in L(tk-) cells expressing human mGluR5a
# Assay type: cell-based
# Study conditions: glutamate-induced intracellular calcium elevation, L(tk-) cells expressing human mGluR5a; read-out: mGluR5 IC50
pIC50: −log10 of the molar value.
Assay endpoint: pIC50

compound="COCc1cn(C2=NCC(=O)N3CCc4c(ccc(F)c4C4CC4)C3=C2)cn1 [Example 96-2]" assay_endpoint=pIC50 test_result=8.70
compound="COCc1cn(C2=NCC(=O)N3CCc4c(cccc4-c4nccs4)C3=C2)cn1 [Example 71]" assay_endpoint=pIC50 test_result=7.57
compound="CC1=C2c3cccc(-c4cc(C)no4)c3CCN2C(=O)CN=C1n1cnc(C2CC2)c1 [Example 107]" assay_endpoint=pIC50 test_result=6.08

====

Recorded measurements of IC50, one per entry
# Study system: human mGluR5a receptors (Homo sapiens (Human), UniProt P41594)
# Sequence (P41594 other isoform, or with tags, fused parts or gaps): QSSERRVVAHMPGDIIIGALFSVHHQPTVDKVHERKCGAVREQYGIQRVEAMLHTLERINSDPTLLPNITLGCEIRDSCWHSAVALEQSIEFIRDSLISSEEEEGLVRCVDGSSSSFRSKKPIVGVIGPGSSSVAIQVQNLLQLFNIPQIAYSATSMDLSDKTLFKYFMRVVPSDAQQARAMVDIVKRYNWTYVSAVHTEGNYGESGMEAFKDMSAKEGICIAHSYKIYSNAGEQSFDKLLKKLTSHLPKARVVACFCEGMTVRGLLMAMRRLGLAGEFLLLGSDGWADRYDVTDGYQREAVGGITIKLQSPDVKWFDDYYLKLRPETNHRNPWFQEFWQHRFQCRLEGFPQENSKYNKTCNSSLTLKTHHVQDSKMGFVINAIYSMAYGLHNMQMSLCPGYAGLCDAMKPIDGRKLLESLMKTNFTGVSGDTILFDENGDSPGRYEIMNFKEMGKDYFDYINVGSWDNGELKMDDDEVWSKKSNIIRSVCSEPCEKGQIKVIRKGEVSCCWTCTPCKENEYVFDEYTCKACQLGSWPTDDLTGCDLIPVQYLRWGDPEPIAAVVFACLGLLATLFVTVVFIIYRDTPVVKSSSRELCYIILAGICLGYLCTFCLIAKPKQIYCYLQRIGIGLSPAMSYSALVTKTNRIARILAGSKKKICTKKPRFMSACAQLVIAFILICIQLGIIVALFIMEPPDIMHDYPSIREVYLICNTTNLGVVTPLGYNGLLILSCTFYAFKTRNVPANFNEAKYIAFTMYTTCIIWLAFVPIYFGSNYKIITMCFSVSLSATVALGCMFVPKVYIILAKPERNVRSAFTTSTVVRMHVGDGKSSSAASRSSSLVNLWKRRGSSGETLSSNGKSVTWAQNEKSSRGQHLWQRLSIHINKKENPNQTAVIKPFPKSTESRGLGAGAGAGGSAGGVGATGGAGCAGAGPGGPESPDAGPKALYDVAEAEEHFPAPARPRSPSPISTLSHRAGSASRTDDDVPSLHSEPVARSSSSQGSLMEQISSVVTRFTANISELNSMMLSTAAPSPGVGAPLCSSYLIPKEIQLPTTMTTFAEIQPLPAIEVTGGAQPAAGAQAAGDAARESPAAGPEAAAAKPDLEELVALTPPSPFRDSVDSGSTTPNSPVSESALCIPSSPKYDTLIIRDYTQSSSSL
# Method summary: inhibition of glutamate-induced elevation of intracellular calcium in L(tk-) cells expressing human mGluR5a
# Format: cell-based
# Study conditions: glutamate-induced intracellular calcium elevation, L(tk-) cells expressing human mGluR5a; read-out: mGluR5 IC50
Assay endpoint: IC50 (nM)

molecule=Cc1cn(C2=NCC(=O)N3CCc4c(cccc4-c4cncs4)C3=C2)cn1 assay_endpoint=IC50 measure_unit=nM test_result=72
molecule=CCc1cccc2c1CCN1C(=O)CN=C(n3cnc(C(C)C)c3)C=C21 assay_endpoint=IC50 measure_unit=nM test_result=28
molecule="O=C1CN=C(n2cnc(C3CC3)n2)C=C2c3cccc(-c4nccnc4F)c3CCN12 [Example 88b]" assay_endpoint=IC50 measure_unit=nM test_result=20
molecule="COCc1cn(C2=NCC(=O)N3CCc4c(C5CC5)cccc4C3C2)cn1 (stereo not shown)" assay_endpoint=IC50 measure_unit=nM test_result=282
